experiment: Cmax in dog at 30 mg/kg/day, po QD for 4 days; type: ADME, organism-based, Canis lupus familiaris; set-up: time 4 day, dose 30 mg/kg/day, route po; conditions: in vivo
measured-property: Cmax (ng/mL)
Write the value in ng/mL as a bare number.

Query :: Please report the recorded Cmax for CC(C)(O)[C@H]1CC[C@H](NC(=O)c2cnc3nc(C4CC4)ccc3c2)CC1 .
Result :: 34000

###

experiment: Cmax in dog at 10 mg/kg/day, po QD for 4 days; assay type: ADME, organism-based, Canis lupus familiaris; parameters: dose 10 mg/kg/day, time 4 day, route po; conditions: in vivo
measured-property: Cmax (ng/mL)
Write the value in ng/mL as a bare number.

Query :: Please report the recorded Cmax for CC(C)(O)[C@H]1CC[C@H](NC(=O)c2cnc3nc(C4CC4)ccc3c2)CC1 .
Result :: 13000

###

assay: Dissociation constant, pKa of the compound by UV spectroscopy or potentiometric analysis; assay type: physicochemical
measured-property: pKa
Answer field: number only, no words.

Query :: Please report the recorded pKa for COc1ccc2cc(C(=O)N[C@H]3CC[C@H](C(C)(C)O)CC3)cnc2c1 .
Result :: 3.59

Query :: Please report the recorded pKa for CC(C)(O)[C@H]1CC[C@H](NC(=O)c2cnc3cc(OC(F)F)ccc3c2)CC1 .
Result :: 2.43

Query :: Please report the recorded pKa for CC(C)(O)[C@H]1CC[C@H](NC(=O)c2cnc3ccccc3c2)CC1 .
Result :: 3.02

Query :: Please report the recorded pKa for COc1ccc2cc(C(=O)N[C@H]3CC[C@H](C(C)(C)O)CC3)cnc2n1 .
Result :: 2.58

Query :: Please report the recorded pKa for COc1ccc2c(c1)N=CN(C(=O)N[C@H]1CC[C@H](C(C)(C)O)CC1)C2 .
Result :: 4.31

Query :: Please report the recorded pKa for CC(C)(O)[C@H]1CC[C@H](NC(=O)c2cnc3cnccc3c2)CC1 .
Result :: 2.74

###

target: Albumin (Homo sapiens); experiment: Protein binding in human serum albumin by HPLC analysis; type: ADME, cell-free; details: read-out: PB (converted)
Sequence (P02768 whole entry): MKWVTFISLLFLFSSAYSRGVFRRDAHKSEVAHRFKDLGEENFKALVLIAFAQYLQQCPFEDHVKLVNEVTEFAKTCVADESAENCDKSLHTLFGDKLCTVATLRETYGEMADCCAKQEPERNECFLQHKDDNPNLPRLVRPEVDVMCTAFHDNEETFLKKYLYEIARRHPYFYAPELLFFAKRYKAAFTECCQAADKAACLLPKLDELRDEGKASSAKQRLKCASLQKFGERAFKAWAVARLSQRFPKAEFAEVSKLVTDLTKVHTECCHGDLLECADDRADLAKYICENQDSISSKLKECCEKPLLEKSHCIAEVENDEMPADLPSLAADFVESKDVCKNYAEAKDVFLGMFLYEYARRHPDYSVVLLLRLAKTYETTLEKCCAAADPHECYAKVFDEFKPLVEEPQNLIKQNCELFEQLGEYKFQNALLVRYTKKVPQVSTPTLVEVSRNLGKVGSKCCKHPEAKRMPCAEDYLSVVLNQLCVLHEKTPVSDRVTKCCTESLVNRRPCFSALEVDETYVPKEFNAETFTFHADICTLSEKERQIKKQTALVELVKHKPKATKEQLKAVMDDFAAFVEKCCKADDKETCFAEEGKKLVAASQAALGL
measured-property: fraction unbound
Answer field: number only, no words.

Query :: Please report the recorded fraction unbound for CC(C)(O)[C@H]1CC[C@H](NC(=O)c2cnc3nc(N4CCC4)ccc3c2)CC1 .
Result :: 0.2

Query :: Please report the recorded fraction unbound for CC(C)(O)[C@H]1CC2(C[C@H](NC(=O)c3cnc4nc(C5CC5)ccc4c3)C2)C1 (some centres not stated) .
Result :: 0.14

Query :: Please report the recorded fraction unbound for C[C@H]1CCN1c1ccc2cc(C(=O)N[C@H]3CC[C@H](C(C)(C)O)CC3)cnc2n1 .
Result :: 0.22

Query :: Please report the recorded fraction unbound for CC(C)(O)[C@H]1C[C@H](NC(=O)c2cnc3cc(C4CC4)ncc3c2)C1 .
Result :: 0.24

Query :: Please report the recorded fraction unbound for O=C(N[C@H]1CCNC1=O)c1cnc2cc(C3CC3)ncc2c1 .
Result :: 0.57

Query :: Please report the recorded fraction unbound for CC(C)(O)[C@H]1CC[C@H](NC(=O)c2cnc3nc(C4CC4)ncc3c2)CC1 .
Result :: 0.36

Query :: Please report the recorded fraction unbound for O=C(N[C@H]1CCNC1=O)c1cnc2cc(N3CCC3)ncc2c1 .
Result :: 0.41

Query :: Please report the recorded fraction unbound for CC(N[C@H]1CC[C@H](NC(=O)c2cnc3nc(C4CC4)ccc3c2)CC1)C(F)F (mixture of isomers) .
Result :: 0.18

Query :: Please report the recorded fraction unbound for C[C@H]1CCN1c1nc2ncc(C(=O)N[C@H]3CCNC3=O)cc2cc1Cl .
Result :: 0.19

Query :: Please report the recorded fraction unbound for CC(C)(O)[C@H]1CC[C@H](NC(=O)c2cnc3cc(N4CC(F)C4)ncc3c2)CC1 .
Result :: 0.27

Query :: Please report the recorded fraction unbound for CC(C)(O)[C@H]1CC[C@H](NC(=O)c2cnc3nc(N4CCC4)ncc3c2)CC1 .
Result :: 0.46

Query :: Please report the recorded fraction unbound for COc1ccc2cc(C(=O)N[C@H]3CC[C@H](C(C)(C)O)CC3)cnc2n1 .
Result :: 0.27

Query :: Please report the recorded fraction unbound for COc1cc2ncc(C(=O)N[C@H]3CC[C@H](C(C)(C)O)CC3)cc2cn1 .
Result :: 0.33

Query :: Please report the recorded fraction unbound for CC(C)(O)[C@H]1CC[C@H](NC(=O)c2cnc3nc(C4CC4)ccc3c2)CC1 .
Result :: 0.2

Query :: Please report the recorded fraction unbound for CC(C)(O)[C@H]1C[C@H](NC(=O)c2cnc3nc(C4CC4)ccc3c2)C1 .
Result :: 0.26

Query :: Please report the recorded fraction unbound for CC(C)(O)C1CC2(CC(NC(=O)c3cnc4nc(C5CC5)ccc4c3)C2)C1 (configuration not stated) .
Result :: 0.14

Query :: Please report the recorded fraction unbound for CC(C)(O)[C@]12C[C@@](NC(=O)c3cnc4nc(C5CC5)ccc4c3)(C1)C2 .
Result :: 0.31
